Recorded Ki by entry
Biological target: Recombinant IKKα (Homo sapiens, UniProt O15111)
Construct: purchased Millipore, Dundee, UK
Sequence (O15111 whole entry): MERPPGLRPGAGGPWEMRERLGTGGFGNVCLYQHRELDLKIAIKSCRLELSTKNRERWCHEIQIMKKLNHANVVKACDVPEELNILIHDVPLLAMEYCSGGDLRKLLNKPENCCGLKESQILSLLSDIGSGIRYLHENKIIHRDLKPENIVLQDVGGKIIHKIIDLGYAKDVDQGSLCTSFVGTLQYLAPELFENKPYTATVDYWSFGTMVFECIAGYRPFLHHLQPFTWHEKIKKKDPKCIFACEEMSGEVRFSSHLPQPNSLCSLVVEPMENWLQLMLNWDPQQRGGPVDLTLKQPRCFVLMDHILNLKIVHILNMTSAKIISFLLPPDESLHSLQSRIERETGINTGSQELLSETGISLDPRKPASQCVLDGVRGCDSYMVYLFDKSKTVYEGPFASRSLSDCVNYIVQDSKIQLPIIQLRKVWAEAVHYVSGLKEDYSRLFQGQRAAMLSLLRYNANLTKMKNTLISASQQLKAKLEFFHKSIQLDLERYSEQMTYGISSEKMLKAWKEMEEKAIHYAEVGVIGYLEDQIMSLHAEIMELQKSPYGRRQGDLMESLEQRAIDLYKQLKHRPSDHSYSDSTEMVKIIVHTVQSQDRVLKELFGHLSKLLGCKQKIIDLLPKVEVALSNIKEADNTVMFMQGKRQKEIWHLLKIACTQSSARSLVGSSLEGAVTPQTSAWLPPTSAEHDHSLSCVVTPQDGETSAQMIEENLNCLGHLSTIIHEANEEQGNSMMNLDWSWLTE
Assay: DELFIA IKKα kinase assay (apparent Ki, Cheng-Prusoff)
Type: biochemical
Settings: non-italicised figure: DELFIA assay

Use these answered entries as a reference point.
molecule	Ki
Nc1cc(-c2cc(-c3cccc(O)c3)c3[nH]nc(N)c3c2)ccn1 [Example 108]	10 nM
Nc1nccc(-c2ccc3[nH]nc(N)c3c2)c1C#CCC1CCNCC1 [Example 97]	15 nM
CC1(C#Cc2cc(-c3ccnc(N)c3)cc3c(N)n[nH]c23)COC1 [Example 141]	14 nM
COC(=O)Nc1cc(-c2cc(C#CC3CC3)c3[nH]nc(N)c3c2)ccn1 [Example 179]	10 nM
Nc1cccc(C#Cc2c(-c3ccc4[nH]nc(N)c4c3)ccnc2N)c1 [Example 77]	4 nM
COCCNC(=O)Nc1cc(-c2ccc3[nH]nc(N)c3c2)ccn1 [Example 43]	76 nM
Nc1n[nH]c2ccc(-c3ccnc(NC(=O)Nc4cccc(C(=O)Nc5ccccc5)c4)c3)cc12 [Example 61]	171 nM
Nc1nccc(-c2ccc3[nH]nc(N)c3c2)c1CCC1(O)CCCCC1 [Example 102]	8980 nM
CC(C)(O)C#Cc1cc(-c2ccnc(N)c2)cc2c(N)n[nH]c12 [Example 140]	281 nM
COCCNc1cc(-c2cc(C#CC(C)(C)C)c3[nH]nc(N)c3c2)ccn1 [Example 162]	35 nM

Missing value: Ki, Recombinant IKKα (Homo sapiens, UniProt O15111), entry Nc1n[nH]c2ccc(-c3ccnc(NC(=O)Nc4cccc(F)c4)c3)cc12 [Example 51] . Fill in? 14 nM

###

Recorded Ki by entry
Biological target: Recombinant IKKβ (Homo sapiens, UniProt O14920)
Construct: purchased Millipore, Dundee, UK
Sequence (O14920 whole entry): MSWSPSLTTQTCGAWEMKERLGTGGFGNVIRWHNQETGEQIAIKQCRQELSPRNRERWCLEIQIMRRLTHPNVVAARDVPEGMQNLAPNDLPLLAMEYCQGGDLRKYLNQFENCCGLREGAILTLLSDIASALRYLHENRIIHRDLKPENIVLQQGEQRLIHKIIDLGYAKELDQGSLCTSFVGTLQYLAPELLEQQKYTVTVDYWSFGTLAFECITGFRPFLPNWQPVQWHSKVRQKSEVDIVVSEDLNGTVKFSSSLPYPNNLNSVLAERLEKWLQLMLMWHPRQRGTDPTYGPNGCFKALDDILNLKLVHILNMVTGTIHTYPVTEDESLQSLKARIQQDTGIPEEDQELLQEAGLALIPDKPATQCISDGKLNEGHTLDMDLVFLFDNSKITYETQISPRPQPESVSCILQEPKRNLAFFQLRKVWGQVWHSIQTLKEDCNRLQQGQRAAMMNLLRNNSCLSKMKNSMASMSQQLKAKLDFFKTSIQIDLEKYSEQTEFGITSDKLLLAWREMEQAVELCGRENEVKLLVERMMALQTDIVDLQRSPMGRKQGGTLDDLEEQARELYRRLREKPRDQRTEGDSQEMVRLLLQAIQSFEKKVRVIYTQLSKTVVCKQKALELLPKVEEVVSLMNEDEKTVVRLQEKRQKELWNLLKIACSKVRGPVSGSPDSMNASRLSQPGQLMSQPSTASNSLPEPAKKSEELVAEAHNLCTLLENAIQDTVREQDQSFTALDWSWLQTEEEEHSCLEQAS
Assay: DELFIA IKKβ kinase assay (apparent Ki, Cheng-Prusoff)
Type: biochemical
Settings: non-italicised figure: DELFIA assay
The reply should contain only the number, in µM.

Use these answered entries as a reference point.
compound	study target	units of measure	Ki
Nc1n[nH]c2ccc(-c3ccnc(NC(=O)NC4CCCC4)c3)cc12 [Example 39]	Recombinant IKKβ (Homo sapiens, UniProt O14920)	µM	0.97
COCCCNc1cc(-c2ccc3[nH]nc(N)c3c2)ccn1 [Example 26]	Recombinant IKKβ (Homo sapiens, UniProt O14920)	µM	0.754

Then this compound:
Look at this compound and give its reported Ki. CCC(=O)Nc1cc(-c2cc(C#CC(C)(C)C)c3[nH]nc(N)c3c2)ccn1 [Example 165] 0.78

###

Target: Recombinant IKKα (Homo sapiens, UniProt O15111)
Construct: purchased Millipore, Dundee, UK
Experiment: DELFIA IKKα kinase assay (apparent Ki, Cheng-Prusoff)
Format: biochemical
Conditions: DELFIA assay (first line of an example)
Met if Ki is below 40 nM. Not met if not; exact matches included in Not met.

Check out these entries, answers already filled in.
molecule	class label
Nc1n[nH]c2c(C#CC3(O)CCCC3)cc(-c3ccnc4[nH]ccc34)cc12 [Example 207]	Not met
COC(=O)Nc1cc(-c2cc(C#CC3CCOCC3)c3[nH]nc(N)c3c2)ccn1 [Example 285]	Met
Nc1n[nH]c2ccc(-c3ccnc4[nH]c(CC5CCNCC5)cc34)cc12 [Example 272]	Met

From here, focus on the item given below.
Is it true that Ki reported for Nc1n[nH]c2c(Cl)cc(-c3ccnc4[nH]c(CCN5CCOCC5)cc34)cc12 [Example 277] is less than 40 nM? Met
